- System: HEK-293T
- assay_name: Multiplex assay against HEK293T;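 for Population Tubulin-Different-Phenotype (%): share of the cells with healthy nuclei that show this phenotype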
- Assay type: toxicity, cell-based
- particulars: human, 48 h, 1 µM, compound concentration 1 uM, replicate 1
Hi, to clarify the labels: t covers Population Tubulin-Different-Phenotype (%) from 30% upward, f covers anything below 30%.

Q: Determine whether measured Population Tubulin-Different-Phenotype (%) meets or exceeds 30% for CN1C(=O)[C@@H](NC(=O)c2cc3ccccc3[nH]2)N=C(c2ccccc2)c2ccccc21 [DEVAZEPIDE]
A: t

Q: I'd appreciate it if you could say whether C[C@@H](Oc1cc(-n2cnc3ccc(CN4CCN(C)CC4)cc32)sc1C(N)=O)c1ccccc1C(F)(F)F has Population Tubulin-Different-Phenotype (%) at least equal to 30%.
A: t

Q: Dear colleague, could you confirm whether N#CCNC(=O)c1ccc(-c2ccnc(Nc3ccc(N4CCOCC4)cc3)n2)cc1 has Population Tubulin-Different-Phenotype (%) at or above 30%?
A: f

Q: Reported Population Tubulin-Different-Phenotype (%) at or above 30%? Cl.NC[C@@H]1O[C@H](C23CC4CC(CC(C4)C2)C3)Cc2c1ccc(O)c2O
A: f

Q: Record Cc1c(P(=S)(c2ccccc2)c2ccccc2)n2ccccc2[n+]1C/C=C/c1ccccc1.[Br-] ; criterion: Population Tubulin-Different-Phenotype (%) no lower than 30%. Met?
A: t

Q: Does the molecule Cc1ccc(S(=O)(=O)NC2c3ccccc3Oc3ccccc32)cc1 have recorded Population Tubulin-Different-Phenotype (%) that is 30% or more?
A: f

Q: Is reported Population Tubulin-Different-Phenotype (%) greater than or equal to 30% here: CC(/C=C1\SC(=S)N(CCCC(=O)Nc2ccc(C(=O)O)c(O)c2)C1=O)=C\c1ccccc1
A: f

Q: Assess whether reported Population Tubulin-Different-Phenotype (%) for CN(c1cc(C(F)(F)F)nc(OCCC(=O)O)n1)c1cccc2c1CCC2 sits at 30% or higher.
A: f

Q: Tell me whether Population Tubulin-Different-Phenotype (%) is at least 30% here: CCCCN(CC)c1nc(C)nc2c1c(C)cn2-c1c(C)cc(C)cc1C.Cl
A: f

Q: // inclusive: Population Tubulin-Different-Phenotype (%) at least 30%? input: C=CC(=O)Nc1cc(-n2c(=O)ccc3cnc4ccc(-c5ccc(NS(C)(=O)=O)cc5)cc4c32)ccc1C
A: t

====

- Tested on: HEK-293T
- assay_name: Multiplex assay against HEK293T
- Type: toxicity, cell-based
- particulars: human, 24 h, 1 µM, compound concentration 1 uM, replicate 2
recorded_metric: Population Hoechst High Intensity Objects (%)
Supply the numeric figure in %, leaving out any unit text.

Q: Check the records and state Population Hoechst High Intensity Objects (%) for N#CCNC(=O)c1ccc(-c2ccnc(Nc3ccc(N4CCOCC4)cc3)n2)cc1
A: 1

Q: Output Population Hoechst High Intensity Objects (%) of NC(=O)c1ccc2nc(-c3ccc(C4(N)CCC4)cc3)c(-c3ccccc3)n2n1
A: 4

Q: Output Population Hoechst High Intensity Objects (%) of CC(C)c1cc(Nc2nc(N3CCC[C@H](N)C3)ncc2C(N)=O)cc(C(C)C)n1
A: 5

Q: Recall and state the measured Population Hoechst High Intensity Objects (%) for Cc1c(Nc2ccc(S(=O)(=O)N3CCN(C)CC3)cc2F)nc2ccc(-c3cnn(C4CC4)c3)cn2c1=O .
A: 2

Q: Please look at this molecule and report its Population Hoechst High Intensity Objects (%): CC[C@@]1(O)C(=O)OCc2c1cc1n(c2=O)Cc2cc3ccccc3nc2-1
A: 5

Q: Please look at this molecule and report its Population Hoechst High Intensity Objects (%): CC(Cc1ccc(O)c(O)c1)C(C)Cc1ccc(O)c(O)c1 (centres undefined) [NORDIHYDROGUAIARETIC ACID]
A: 3

Q: For the molecule CN(c1cc(C(F)(F)F)nc(OCCC(=O)O)n1)c1cccc2c1CCC2 , give its reported Population Hoechst High Intensity Objects (%).
A: 4

Q: Look up Population Hoechst High Intensity Objects (%) of CCCCCNC(=N)N/N=C/c1c[nH]c2ccc(OC)cc12.O=C(O)/C=C\C(=O)O [TEGASEROD MALEATE] and report it.
A: 3

Q: Provide one value: measured Population Hoechst High Intensity Objects (%) of Cl.Cn1c2c(c3ccc(Cl)c(Cl)c31)C(C#N)C1(CCNCC1)NC2=O (centres undefined)
A: 3

Q: Indicate its recorded Population Hoechst High Intensity Objects (%); the molecule in question is CC[C@H](Nc1ncnc2[nH]cnc12)c1nc2cccc(F)c2c(=O)n1-c1ccccc1
A: 3

Q: Give the reported Population Hoechst High Intensity Objects (%) for this molecule. Cc1c(P(=S)(c2ccccc2)c2ccccc2)n2ccccc2[n+]1C/C=C/c1ccccc1.[Br-]
A: 7

Q: Output measured Population Hoechst High Intensity Objects (%) for this item: CCCc1cc(C)[nH]c(=O)c1CNC(=O)c1cc(-c2ccc(N3CCN(C(C)C)CC3)nc2)cc2c1cnn2C(C)C
A: 3

Q: Name the recorded Population Hoechst High Intensity Objects (%) of the molecule listed here: C=CC(=O)Nc1cc(-n2c(=O)ccc3cnc4ccc(-c5ccc(NS(C)(=O)=O)cc5)cc4c32)ccc1C
A: 3

Q: Determine its reported Population Hoechst High Intensity Objects (%): CC[C@@H]1C(=O)N(C)c2cnc(Nc3ccc(C(=O)NC4CCN(C)CC4)cc3OC)nc2N1C1CCCC1
A: 4

Q: Return reported Population Hoechst High Intensity Objects (%). Input molecule: Cl.NC[C@@H]1O[C@H](C23CC4CC(CC(C4)C2)C3)Cc2c1ccc(O)c2O
A: 1

Q: Give reported Population Hoechst High Intensity Objects (%) value for CCOC(=O)CCNc1cc(N2CCc3ccccc3CC2)nc(-c2ccccn2)n1
A: 2

Q: Specify reported Population Hoechst High Intensity Objects (%) for the molecule shown: C[C@@H](Oc1cc(-n2cnc3ccc(CN4CCN(C)CC4)cc32)sc1C(N)=O)c1ccccc1C(F)(F)F
A: 3

Q: // Input: N#Cc1cccc(C(=O)Nc2cc(-c3ccccc3)nn2-c2ccccc2)c1 . Output its Population Hoechst High Intensity Objects (%) only.
A: 4

Q: Name the recorded Population Hoechst High Intensity Objects (%) of the molecule listed here: CCOc1ccn(-c2ccc(F)cc2)c(=O)c1C(=O)Nc1ccc(Oc2ccnc(N)c2Cl)c(F)c1
A: 6

Q: Indicate its recorded Population Hoechst High Intensity Objects (%); the molecule in question is Oc1cccc(-c2nc(N3CCOCC3)c3oc4ncccc4c3n2)c1
A: 15

Q: Look up Population Hoechst High Intensity Objects (%) of CN1C(=O)[C@@H](NC(=O)c2cc3ccccc3[nH]2)N=C(c2ccccc2)c2ccccc21 [DEVAZEPIDE] and report it.
A: 2

Q: In one line, give reported Population Hoechst High Intensity Objects (%) of the entry CC(C)[C@H](CO)Nc1nc(Nc2cccc(Cl)c2)c2ncn(C(C)C)c2n1 .
A: 3

Q: Find the measured Population Hoechst High Intensity Objects (%) of Cc1ccc(NC(=O)Nc2cc(C(F)(F)F)ccc2F)cc1Nc1ccc2c(c1)NC(=O)/C2=C\c1ccc[nH]1 and report it.
A: 4

Q: Determine its reported Population Hoechst High Intensity Objects (%): Cc1ccc(S(=O)(=O)NC2c3ccccc3Oc3ccccc32)cc1
A: 1
